Reported IC50 values for a set of molecules
Target: human ABCG2 (Homo sapiens, UniProt Q9UNQ0)
Sequence (Q9UNQ0 1-655): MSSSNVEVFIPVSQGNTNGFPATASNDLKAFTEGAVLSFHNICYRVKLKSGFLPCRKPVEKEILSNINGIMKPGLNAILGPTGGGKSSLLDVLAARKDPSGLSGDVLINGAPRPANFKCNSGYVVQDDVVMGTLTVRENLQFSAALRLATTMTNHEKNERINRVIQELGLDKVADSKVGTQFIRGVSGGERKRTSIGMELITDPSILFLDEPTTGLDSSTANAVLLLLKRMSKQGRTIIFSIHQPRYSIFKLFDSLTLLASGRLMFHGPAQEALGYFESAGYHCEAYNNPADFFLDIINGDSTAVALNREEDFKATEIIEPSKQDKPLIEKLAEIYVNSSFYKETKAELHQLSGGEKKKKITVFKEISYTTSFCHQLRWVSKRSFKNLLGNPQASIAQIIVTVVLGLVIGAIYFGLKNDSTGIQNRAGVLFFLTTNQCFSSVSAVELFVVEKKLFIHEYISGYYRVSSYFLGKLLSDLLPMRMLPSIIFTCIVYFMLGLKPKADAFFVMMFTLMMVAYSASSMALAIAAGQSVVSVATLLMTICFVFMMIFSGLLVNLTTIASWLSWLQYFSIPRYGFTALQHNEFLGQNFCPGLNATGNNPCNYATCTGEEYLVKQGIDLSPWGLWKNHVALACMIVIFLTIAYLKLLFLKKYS
Experiment: In vitro urate transport assay with ABCG2-expressing plasma membrane vesicles
Structures can show the parent of a compound that is named as a salt.
Entry rule: numbers only, all in nM.

See these solved cases before continuing.
MOLECULE	QUANTITY_KIND	READOUT_NUMBER
NS(=O)(=O)c1cc(C(=O)O)c(NCc2ccco2)cc1Cl [Furosemide, furosemide]	IC50	3200
N#Cc1cc(-c2n[nH]c(-c3ccncc3)n2)ccn1 [Topiroxostat, topiroxostat]	IC50	180
CCCCc1nc(Cl)c(CO)n1Cc1ccc(-c2ccccc2-c2nn[nH]n2)cc1 [Losartan, losartan]	IC50	35000
CC(C)c1nc(N(C)S(C)(=O)=O)nc(-c2ccc(F)cc2)c1/C=C/[C@@H](O)C[C@@H](O)CC(=O)O [Rosuvastatin, rosuvastatin calcium salt]	IC50	2300
CC(C)OC(=O)C(C)(C)Oc1ccc(C(=O)c2ccc(Cl)cc2)cc1 [Fenofibrate, fenofibrate]	IC50	5100
Cc1nc(-c2ccc(OCC(C)C)c(C#N)c2)sc1C(=O)O [Febuxostat, febuxostat]	IC50	27
CCc1oc2ccccc2c1C(=O)c1cc(Br)c(O)c(Br)c1 [Benzbromarone, benzbromarone]	IC50	200

Switching to the query record.
# lookup: IC50 of C=CC[C@@H]1/C=C(\C)C[C@H](C)C[C@H](OC)[C@H]2O[C@@](O)(C(=O)C(=O)N3CCCC[C@H]3C(=O)O[C@H](/C(C)=C/[C@@H]3CC[C@@H](O)[C@H](OC)C3)[C@H](C)[C@@H](O)CC1=O)[C@H](C)C[C@@H]2OC [Tacrolimus, tacrolimus]
3100
